B1: MMP1 (parent)
chain: MFFKDRFYMRTNPFYPEVELNFIS

# Variants of: B1
# protocol_details: protein stability index of a GFP-peptide fusion (GPS, HEK-293T) (PSI 1-6); higher = more stable;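 also: lentivirally expressed fusions sorted by FACS into six bins by GFP to DsRed ratio, PSI derived from sequencing read proportions per bin multiplied by bin number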
# condition_context: c terminus: a fixed tail appended
Please map values of protein stability index to classes as shown: low (below 2), moderate (2 to below 3), high (3 or more)

Study these solved cases before continuing.
INSERT INTO assay_data (mutation_annotation, answer_label) VALUES
  ('T11R', 'moderate'),
  ('F22K', 'low'),
  ('M1D', 'moderate'),
  ('M9T', 'moderate'),
  ('V18T', 'high');

stdin: Field: class (protein stability index) — entry: Y15V
stdout: moderate

stdin: Follow-up item: E19M
stdout: low

stdin: Follow-up item: E17G
stdout: moderate

stdin: Follow-up item: R6L
stdout: moderate

stdin: Follow-up item: M1R
stdout: moderate

stdin: Follow-up item: V18N
stdout: low

stdin: Follow-up item: M1Y
stdout: low

stdin: Follow-up item: F2A
stdout: high

stdin: Follow-up item: F2Q
stdout: moderate

stdin: Follow-up item: F22E
stdout: moderate

stdin: Follow-up item: D5M
stdout: moderate

stdin: Follow-up item: F14N
stdout: moderate

stdin: Follow-up item: M9Y
stdout: high

stdin: Follow-up item: N12R
stdout: high

stdin: Follow-up item: M9L
stdout: low

stdin: Follow-up item: Y15D
stdout: high

stdin: Follow-up item: R10L
stdout: moderate
